- Study system: APJ (Homo sapiens, UniProt P35414)
- Sequence (P35414 1-380): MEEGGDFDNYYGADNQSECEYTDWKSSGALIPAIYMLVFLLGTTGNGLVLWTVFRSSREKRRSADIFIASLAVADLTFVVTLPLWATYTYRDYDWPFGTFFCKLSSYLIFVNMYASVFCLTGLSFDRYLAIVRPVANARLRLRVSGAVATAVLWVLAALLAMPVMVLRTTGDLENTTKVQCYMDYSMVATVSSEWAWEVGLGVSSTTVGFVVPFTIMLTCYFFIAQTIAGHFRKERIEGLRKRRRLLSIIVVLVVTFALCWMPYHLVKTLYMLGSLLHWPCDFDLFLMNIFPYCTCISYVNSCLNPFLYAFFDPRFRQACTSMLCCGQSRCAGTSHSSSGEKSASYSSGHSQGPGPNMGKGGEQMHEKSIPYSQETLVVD
- Measurement description: APJ cAMP assay (primary, cAMP HitHunter, CHO-K1-APJ cells)
- Format: cell-based
- Design: host or cells: CHO-K1 (CHO-K1-APJ / CHO-k1-AGTRL1)
pIC50: −log10 of the molar value.
Quantity measured: pIC50

Take a look at these entries with their results.
Molecule: NC(=O)c1ccc(Nc2ccnc3cc(Cl)ccc23)cc1
Study system: APJ (Homo sapiens, UniProt P35414)
pIC50: 6.25

Molecule: COc1ccc(Nc2ccnc3cc(Cl)ccc23)cc1
Study system: APJ (Homo sapiens, UniProt P35414)
pIC50: 5.85

Molecule: O=C(O)c1ccccc1Nc1ccnc2cc(Cl)ccc12
Study system: APJ (Homo sapiens, UniProt P35414)
pIC50: 6.03

Molecule: CCN(CC)Cc1cc(Nc2ccnc3cc(Cl)ccc23)ccc1O
Study system: APJ (Homo sapiens, UniProt P35414)
pIC50: 5.46

[I] O=C(c1ccccc1Nc1ccnc2cc(Cl)ccc12)N1CCOCC1
[II] O=C(OCC(O)CO)c1ccccc1Nc1ccnc2cc(Cl)ccc12 (stereo not drawn)
# input Lab note: check whether I or II has the lower measured pIC50. Refer to your chosen item by its label in the answer.
# output I

---

- Study system: APJ (Homo sapiens)
- Measurement description: APJ β-arrestin recruitment assay (PathHunter, CHO-K1-APJ)
- Assay type: cell-based
- Parameters: β-galactosidase enzyme fragment (enzyme fragment complementation construct); host or cells: CHO-K1 (CHO-K1-APJ, PathHunter)
- Test settings: secondary assay, Ap13-mediated β-arrestin recruitment
Quantity measured: IC50

Compound: O=C(O)c1ccccc1Nc1ccnc2cc(Cl)ccc12
IC50: > 40 µM

Compound: O=C(c1ccccc1Nc1ccnc2cc(Cl)ccc12)N1CCOCC1
IC50: > 99 µM

Compound: CCN(CC)Cc1cc(Nc2ccnc3cc(Cl)ccc23)ccc1O
IC50: > 99 µM

Compound: O=C(OCC(O)CO)c1ccccc1Nc1ccnc2cc(Cl)ccc12 (stereo not drawn)
IC50: > 99 µM

Compound: NC(=O)c1ccc(Nc2ccnc3cc(Cl)ccc23)cc1
IC50: > 99 µM

Next compound, IC50 to be filled in.
# input For COc1ccc(Nc2ccnc3cc(Cl)ccc23)cc1 , what is its reported IC50?
# output > 40 µM

---

- Measurement description: PAMPA permeability
- Format: in vitro ADME
- Test settings: Donor pH 6.2, Acceptor pH 7.4, read-out: PAMPA permeability Pe
Quantity measured: Papp (×10⁻⁶ cm/s)
Please give a number only; it is taken to be in ×10⁻⁶ cm/s.

# input For CCN(CC)Cc1cc(Nc2ccnc3cc(Cl)ccc23)ccc1O , what is its reported Papp?
# output 9.6

This collection of values is drawn from paper PMC6135396.
